# system_tested: STK16 (human)
# test: KINOMEscan competition binding
# test_parameters: compound 10.0 µM
reported_metric: kinase still bound, per cent of control

// known answers, use as guide
| compound_structure | result |
| --- | --- |
| c1ccc(-c2n[nH]cc2-c2ccnc3ccccc23)nc1 | no effect (inactive) |
| Cc1ccc(NC(=O)c2cccc(N3CCCCC3)c2)cc1-c1ccc(C(=O)NCC2CC2)cc1 | no effect (inactive) |
| Cc1ccc(C(=O)Nc2cccc(C(C)(C)C)c2)cc1-c1ccc(C(=O)NCC2CC2)cc1 | no effect (inactive) |
| CCS(=O)(=O)Nc1ccc2c(c1)[C@H](/C(=N/c1ccc(CN3CCCCC3)cc1)c1ccccc1)C(=O)N2 | 0% |

Now turn to the next molecule.
Provide the documented kinase still bound, per cent of control with STK16 (human) as the system for NC(=O)c1ccc(-c2cc(C(N)=O)c(N)c(-c3ccc(S(N)(=O)=O)cc3)c2)cc1
no effect (inactive)

----------
# system_tested: AURKB (human) (UniProt Q96GD4)
# Sequence (Q96GD4 whole entry, looked up): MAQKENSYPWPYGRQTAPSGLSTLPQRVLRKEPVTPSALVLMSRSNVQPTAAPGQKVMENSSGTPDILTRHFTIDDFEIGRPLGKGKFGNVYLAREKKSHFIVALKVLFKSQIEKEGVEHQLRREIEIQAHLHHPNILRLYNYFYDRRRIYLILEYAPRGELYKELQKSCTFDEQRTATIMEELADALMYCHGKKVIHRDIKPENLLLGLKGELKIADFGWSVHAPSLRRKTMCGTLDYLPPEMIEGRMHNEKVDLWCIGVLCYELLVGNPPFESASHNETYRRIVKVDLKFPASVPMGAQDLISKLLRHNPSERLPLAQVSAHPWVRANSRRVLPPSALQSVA
# test: KINOMEscan competition binding
# test_parameters: compound 10.0 µM
reported_metric: kinase still bound, per cent of control

// known answers, use as guide
| compound_structure | result |
| --- | --- |
| Cc1cc(Nc2cc(N3CCN(C)CC3)nc(Sc3ccc(NC(=O)C4CC4)cc3)n2)[nH]n1 | 0% |
| Cc1ccc(NC(=O)c2cccc(N3CCCCC3)c2)cc1-c1ccc(C(=O)NCC2CC2)cc1 | no effect (inactive) |
| CCS(=O)(=O)Nc1ccc2c(c1)[C@H](/C(=N/c1ccc(CN3CCCCC3)cc1)c1ccccc1)C(=O)N2 | 0% |
| NC(=O)c1ccc(Nc2cc(-c3ccc(F)cc3)[nH]n2)cc1 | no effect (inactive) |

Now turn to the next compound.
Any idea what its kinase still bound, per cent of control is? The compound is Cc1ccc(C(=O)Nc2cccc(C(C)(C)C)c2)cc1-c1ccc(C(=O)NCC2CC2)cc1
no effect (inactive)

----------
# system_tested: EPHA1 (human)
# test: KINOMEscan competition binding
# test_parameters: compound 10.0 µM
reported_metric: kinase still bound, per cent of control

| compound_structure | kinase still bound, per cent of control |
| --- | --- |
| CCS(=O)(=O)Nc1ccc2c(c1)[C@H](/C(=N/c1ccc(CN3CCCCC3)cc1)c1ccccc1)C(=O)N2 | 0.2% |
| N#Cc1ccc(-c2cnc3[nH]cc(NC(=O)c4cccnc4)c3c2)cc1 | no effect (inactive) |
| O=C1Nc2ccccc2/C1=C/c1ccc[nH]1 | no effect (inactive) |
| Cc1ccc(NC(=O)c2cccc(N3CCCCC3)c2)cc1-c1ccc(C(=O)NCC2CC2)cc1 | no effect (inactive) |
| Cc1ccc(C(=O)Nc2cccc(C(C)(C)C)c2)cc1-c1ccc(C(=O)NCC2CC2)cc1 | no effect (inactive) |

Now turn to the next compound.
Provide the documented kinase still bound, per cent of control with EPHA1 (human) as the system for NC(=O)c1ccc(Nc2cc(-c3ccc(F)cc3)[nH]n2)cc1
no effect (inactive)

----------
# system_tested: GSK3A (human) (UniProt P49840)
# Sequence (P49840 whole entry, looked up): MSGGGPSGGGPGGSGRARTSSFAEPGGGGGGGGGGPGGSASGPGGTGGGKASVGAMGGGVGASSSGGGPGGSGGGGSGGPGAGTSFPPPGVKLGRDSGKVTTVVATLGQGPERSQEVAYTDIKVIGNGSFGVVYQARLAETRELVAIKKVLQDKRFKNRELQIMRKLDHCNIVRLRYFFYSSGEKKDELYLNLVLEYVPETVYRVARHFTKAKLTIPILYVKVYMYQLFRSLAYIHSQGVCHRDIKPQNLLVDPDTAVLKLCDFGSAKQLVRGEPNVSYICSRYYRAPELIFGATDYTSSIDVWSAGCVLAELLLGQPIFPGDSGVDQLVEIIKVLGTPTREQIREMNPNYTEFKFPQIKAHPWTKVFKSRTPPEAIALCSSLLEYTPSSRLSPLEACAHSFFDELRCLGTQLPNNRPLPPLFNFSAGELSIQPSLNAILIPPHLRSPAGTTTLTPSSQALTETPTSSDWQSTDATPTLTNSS
# test: KINOMEscan competition binding
# test_parameters: compound 10.0 µM
reported_metric: kinase still bound, per cent of control

// known answers, use as guide
| compound_structure | kinase still bound, per cent of control |
| --- | --- |
| Cc1ccc(C(=O)Nc2cccc(C(C)(C)C)c2)cc1-c1ccc(C(=O)NCC2CC2)cc1 | no effect (inactive) |
| NC(=O)c1ccc(Nc2cc(-c3ccc(F)cc3)[nH]n2)cc1 | no effect (inactive) |
| Cc1ccc(NC(=O)c2cccc(N3CCCCC3)c2)cc1-c1ccc(C(=O)NCC2CC2)cc1 | no effect (inactive) |
| CN(C)c1ccc(-c2cc3ncccc3c(NCCCCN)n2)cc1 | no effect (inactive) |
| NC(=O)c1ccc(-c2cc(C(N)=O)c(N)c(-c3ccc(S(N)(=O)=O)cc3)c2)cc1 | no effect (inactive) |

Now turn to the next compound.
Any idea what its kinase still bound, per cent of control is? The compound is O=C(Nc1n[nH]c2nc(-c3cccc(O)c3)ccc12)C1CC1
0%

----------
# system_tested: BMP2K (human) (UniProt Q9NSY1)
# Sequence (Q9NSY1 whole entry, looked up): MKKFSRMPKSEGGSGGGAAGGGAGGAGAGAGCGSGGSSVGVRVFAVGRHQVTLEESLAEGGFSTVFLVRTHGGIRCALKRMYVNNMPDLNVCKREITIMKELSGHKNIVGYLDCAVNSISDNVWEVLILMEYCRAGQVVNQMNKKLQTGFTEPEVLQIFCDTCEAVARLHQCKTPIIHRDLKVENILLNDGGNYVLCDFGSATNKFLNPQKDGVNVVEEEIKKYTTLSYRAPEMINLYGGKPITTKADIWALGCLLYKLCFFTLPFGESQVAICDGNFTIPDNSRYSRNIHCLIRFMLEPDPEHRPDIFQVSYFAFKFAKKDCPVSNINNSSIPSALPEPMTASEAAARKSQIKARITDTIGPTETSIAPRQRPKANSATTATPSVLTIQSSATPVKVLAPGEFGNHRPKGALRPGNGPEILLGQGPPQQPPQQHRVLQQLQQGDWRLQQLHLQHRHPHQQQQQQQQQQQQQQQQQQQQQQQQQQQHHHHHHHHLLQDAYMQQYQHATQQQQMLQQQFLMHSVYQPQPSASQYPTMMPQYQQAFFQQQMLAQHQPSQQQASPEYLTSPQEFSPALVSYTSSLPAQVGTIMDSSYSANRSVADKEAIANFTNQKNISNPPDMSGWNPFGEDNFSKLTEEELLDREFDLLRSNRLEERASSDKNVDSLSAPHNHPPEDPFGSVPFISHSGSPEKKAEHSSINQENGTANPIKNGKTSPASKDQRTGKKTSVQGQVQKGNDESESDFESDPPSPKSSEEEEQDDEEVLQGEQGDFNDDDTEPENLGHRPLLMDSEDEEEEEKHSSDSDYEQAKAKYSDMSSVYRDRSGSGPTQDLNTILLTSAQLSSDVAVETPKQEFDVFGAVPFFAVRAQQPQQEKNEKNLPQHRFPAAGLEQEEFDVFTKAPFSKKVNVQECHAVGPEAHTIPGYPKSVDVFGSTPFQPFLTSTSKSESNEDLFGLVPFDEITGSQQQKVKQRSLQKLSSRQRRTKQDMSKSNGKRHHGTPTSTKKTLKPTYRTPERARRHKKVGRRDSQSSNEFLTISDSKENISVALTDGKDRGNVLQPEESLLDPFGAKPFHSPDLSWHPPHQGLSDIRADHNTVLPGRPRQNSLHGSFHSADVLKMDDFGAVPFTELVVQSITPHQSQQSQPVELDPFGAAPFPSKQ
# test: KINOMEscan competition binding
# test_parameters: compound 10.0 µM
reported_metric: kinase still bound, per cent of control

// known answers, use as guide
| compound_structure | kinase still bound, per cent of control |
| --- | --- |
| c1ccc(-c2n[nH]cc2-c2ccnc3ccccc23)nc1 | no effect (inactive) |
| Cc1ccc(NC(=O)c2cccc(N3CCCCC3)c2)cc1-c1ccc(C(=O)NCC2CC2)cc1 | no effect (inactive) |
| Cc1ccc(O)cc1Nc1ccnc(Nc2cccc(C(N)=O)c2)n1 | no effect (inactive) |
| CCS(=O)(=O)Nc1ccc2c(c1)[C@H](/C(=N/c1ccc(CN3CCCCC3)cc1)c1ccccc1)C(=O)N2 | 0% |
| Nc1ncnc2c1c(-c1cccc(O)c1)cn2C1CCNCC1 | no effect (inactive) |

Provide the documented kinase still bound, per cent of control with BMP2K (human) (UniProt Q9NSY1) as the system for NC(=O)c1ccc(-c2cc(C(N)=O)c(N)c(-c3ccc(S(N)(=O)=O)cc3)c2)cc1
no effect (inactive)

Provide the documented kinase still bound, per cent of control with BMP2K (human) (UniProt Q9NSY1) as the system for Cc1ccc(C(=O)Nc2cccc(C(C)(C)C)c2)cc1-c1ccc(C(=O)NCC2CC2)cc1
no effect (inactive)

Provide the documented kinase still bound, per cent of control with BMP2K (human) (UniProt Q9NSY1) as the system for CC(=O)c1c(-c2ccncc2)[nH]c(-c2ccncc2)c1C
no effect (inactive)

----------
# system_tested: AAK1 (human) (UniProt Q2M2I8)
# Sequence (Q2M2I8 whole entry, looked up): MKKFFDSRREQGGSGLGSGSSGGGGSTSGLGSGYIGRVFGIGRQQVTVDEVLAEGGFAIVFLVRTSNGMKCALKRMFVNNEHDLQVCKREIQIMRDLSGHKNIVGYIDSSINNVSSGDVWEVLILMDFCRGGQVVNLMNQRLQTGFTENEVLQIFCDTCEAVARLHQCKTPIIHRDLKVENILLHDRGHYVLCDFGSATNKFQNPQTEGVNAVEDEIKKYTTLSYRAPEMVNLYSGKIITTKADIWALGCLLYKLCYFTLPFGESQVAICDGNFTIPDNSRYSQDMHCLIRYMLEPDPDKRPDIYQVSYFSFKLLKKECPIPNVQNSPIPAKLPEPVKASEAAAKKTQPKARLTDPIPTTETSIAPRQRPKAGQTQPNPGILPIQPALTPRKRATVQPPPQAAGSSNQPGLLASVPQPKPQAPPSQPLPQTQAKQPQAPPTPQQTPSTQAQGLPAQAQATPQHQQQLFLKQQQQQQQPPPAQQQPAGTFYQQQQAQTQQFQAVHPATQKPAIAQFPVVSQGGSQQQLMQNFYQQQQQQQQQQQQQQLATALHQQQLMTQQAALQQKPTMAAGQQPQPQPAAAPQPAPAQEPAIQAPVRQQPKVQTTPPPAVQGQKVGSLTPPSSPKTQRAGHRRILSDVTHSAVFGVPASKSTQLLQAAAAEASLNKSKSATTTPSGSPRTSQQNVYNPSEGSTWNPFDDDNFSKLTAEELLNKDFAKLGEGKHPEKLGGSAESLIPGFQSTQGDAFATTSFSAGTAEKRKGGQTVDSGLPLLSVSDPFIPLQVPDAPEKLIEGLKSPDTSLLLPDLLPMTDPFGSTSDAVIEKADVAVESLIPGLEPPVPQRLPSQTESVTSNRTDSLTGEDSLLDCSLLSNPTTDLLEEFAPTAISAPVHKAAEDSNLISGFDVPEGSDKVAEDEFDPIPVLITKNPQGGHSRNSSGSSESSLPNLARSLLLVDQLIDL
# test: KINOMEscan competition binding
# test_parameters: compound 10.0 µM
reported_metric: kinase still bound, per cent of control

| compound_structure | result |
| --- | --- |
| Cc1ccc(C(=O)Nc2cccc(C(C)(C)C)c2)cc1-c1ccc(C(=O)NCC2CC2)cc1 | no effect (inactive) |
| c1ccc(-c2n[nH]cc2-c2ccnc3ccccc23)nc1 | no effect (inactive) |
| NC(=O)Nc1sc(-c2ccc(F)cc2)cc1C(N)=O | 0% |

----------
# system_tested: PHKG2 (human)
# test: KINOMEscan competition binding
# test_parameters: compound 10.0 µM
reported_metric: kinase still bound, per cent of control

| compound_structure | system_tested | kinase still bound, per cent of control |
| --- | --- | --- |
| NC(=O)c1ccc(-c2cc(C(N)=O)c(N)c(-c3ccc(S(N)(=O)=O)cc3)c2)cc1 | PHKG2 (human) | no effect (inactive) |
| c1ccc(-c2n[nH]cc2-c2ccnc3ccccc23)nc1 | PHKG2 (human) | no effect (inactive) |
| CC(=O)c1c(-c2ccncc2)[nH]c(-c2ccncc2)c1C | PHKG2 (human) | no effect (inactive) |
| NC(=O)c1ccc(Nc2cc(-c3ccc(F)cc3)[nH]n2)cc1 | PHKG2 (human) | no effect (inactive) |

Now turn to the next compound.
Any idea what its kinase still bound, per cent of control is? The compound is Cc1ccc(O)cc1Nc1ccnc(Nc2cccc(C(N)=O)c2)n1
no effect (inactive)

----------
# system_tested: MET (human)
# test: KINOMEscan competition binding
# test_parameters: compound 10.0 µM
reported_metric: kinase still bound, per cent of control

// known answers, use as guide
| compound_structure | kinase still bound, per cent of control |
| --- | --- |
| O=C(Nc1n[nH]c2nc(-c3cccc(O)c3)ccc12)C1CC1 | no effect (inactive) |
| Cc1ccc(C(=O)Nc2cccc(C(C)(C)C)c2)cc1-c1ccc(C(=O)NCC2CC2)cc1 | no effect (inactive) |
| NC(=O)Nc1sc(-c2ccc(F)cc2)cc1C(N)=O | no effect (inactive) |
| NC(=O)c1ccc(Nc2cc(-c3ccc(F)cc3)[nH]n2)cc1 | no effect (inactive) |

Any idea what its kinase still bound, per cent of control is? The compound is CCS(=O)(=O)Nc1ccc2c(c1)[C@H](/C(=N/c1ccc(CN3CCCCC3)cc1)c1ccccc1)C(=O)N2
0.3%

----------
# system_tested: FGFR3 (human)
# test: KINOMEscan competition binding
# test_parameters: compound 10.0 µM
reported_metric: kinase still bound, per cent of control

| compound_structure | system_tested | kinase still bound, per cent of control |
| --- | --- | --- |
| Cc1ccc(O)cc1Nc1ccnc(Nc2cccc(C(N)=O)c2)n1 | FGFR3 (human) | no effect (inactive) |
| O=C(Nc1n[nH]c2nc(-c3cccc(O)c3)ccc12)C1CC1 | FGFR3 (human) | no effect (inactive) |
| Nc1ncnc2c1c(-c1cccc(O)c1)cn2C1CCNCC1 | FGFR3 (human) | no effect (inactive) |
| CCS(=O)(=O)Nc1ccc2c(c1)[C@H](/C(=N/c1ccc(CN3CCCCC3)cc1)c1ccccc1)C(=O)N2 | FGFR3 (human) | 0% |

Now turn to the next compound.
Any idea what its kinase still bound, per cent of control is? The compound is NC(=O)c1ccc(-c2cc(C(N)=O)c(N)c(-c3ccc(S(N)(=O)=O)cc3)c2)cc1
no effect (inactive)
